Answer each item with its documented pIC50.
- Experimental target: human MDM2 (GST-hMDM2 1-188), interaction with biotinylated-p53 (1-83) (Homo sapiens)
- Construct: Amino acid residues 1-188 of human MDM2 were expressed
- Sequence (Q00987 1-188): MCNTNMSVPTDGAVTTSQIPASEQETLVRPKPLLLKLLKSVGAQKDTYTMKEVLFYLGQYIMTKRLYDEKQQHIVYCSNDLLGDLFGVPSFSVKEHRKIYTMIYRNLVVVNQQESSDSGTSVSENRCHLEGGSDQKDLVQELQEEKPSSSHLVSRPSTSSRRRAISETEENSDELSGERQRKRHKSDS
- Assay summary: improved HTRF assay (HTRF2 assay), inhibition of HDM2-p53 interaction
- Condition notes: 0.2 nM GST-hMDM2, 0.5 nM biotinylated-p53, 100 mM KF
- Description: Residues 1-83 of human p53 were expressed as an amino-terminal AviTag™-TrxA-6xHis fusion protein (biotinylated p53) in E. coli. Each protein was purified from cell paste by affinity chromatography. Specifically, 10 uL of GST-hMDM2 was incubated with 10 ul of diluted compound (various concentrations, serially diluted) in 10% DMSO for 20 minutes at room temperature. […] Time-resolved fluorescence readings were measured on a microplate multilabel reader. […]
Give bare numbers, as −log10 of the molar value.

Compound	Experimental target	Numeric value
C[C@@H](CS(=O)(=O)C(C)(C)C)N1C(=O)[C@H](CC(=O)NS(C)(=O)=O)O[C@H](c2cccc(Cl)c2)[C@H]1c1ccc(Cl)cc1 (single isomer, unassigned)	human MDM2 (GST-hMDM2 1-188), interaction with biotinylated-p53 (1-83) (Homo sapiens)	8.52
Cc1ccc([C@H]2O[C@H](CC(=O)O)C(=O)N([C@H](CS(=O)(=O)C(C)(C)C)C3CC3)[C@@H]2c2ccc(Cl)cc2)cc1Cl	human MDM2 (GST-hMDM2 1-188), interaction with biotinylated-p53 (1-83) (Homo sapiens)	7.29
C=CC[C@@H]1O[C@H](c2cccc(Cl)c2)[C@@H](c2ccc(Cl)cc2)N([C@@H](CC)CN(c2ccccn2)S(=O)(=O)C2CC2)C1=O (single isomer, unassigned) [Example 179]	human MDM2 (GST-hMDM2 1-188), interaction with biotinylated-p53 (1-83) (Homo sapiens)	6.85
CC(C)[C@@H](CS(=O)(=O)C(C)(C)C)N1C(=O)[C@@H](CC(=O)O)O[C@H](c2cccc(Cl)c2)[C@H]1c1ccc(Cl)c(F)c1 (single isomer, unassigned) [Example 313]	human MDM2 (GST-hMDM2 1-188), interaction with biotinylated-p53 (1-83) (Homo sapiens)	7.42

Could you tell me pIC50 for each of these compounds? They are listed below.
1. CC[C@@H](CS(=O)(=O)CC1CC1)N1C(=O)[C@@H](CC(=O)O)O[C@H](c2cccc(Cl)c2)[C@H]1c1ccc(Cl)cc1 (single isomer, unassigned) [Example 190]
2. CNC(=O)C[C@@H]1O[C@H](c2cccc(Cl)c2)[C@@H](c2ccc(Cl)cc2)N([C@@H](C)CS(=O)(=O)C(C)(C)C)C1=O (single isomer, unassigned)
3. O=C(O)C[C@H]1O[C@H](c2cccc(Cl)c2)[C@@H](c2ccc(Cl)cc2)N([C@H](CS(=O)(=O)c2ccncc2)C2CC2)C1=O (single isomer, unassigned) [Example 286]

**A:**
1: 8.52; 2: 7.96; 3: 8.70

Could you report pIC50 for every entry in the following list?
1. C[C@@H](CS(=O)(=O)C(C)(C)C)N1C(=O)[C@H](CC(=O)NCCO)O[C@H](c2cccc(Cl)c2)[C@H]1c1ccc(Cl)cc1 (single isomer, unassigned)
2. CC[C@@H](CS(=O)(=O)N1CCC[C@@H]1C)N1C(=O)[C@@H](CC(=O)O)O[C@H](c2cccc(Cl)c2)[C@H]1c1ccc(Cl)cc1 (single isomer, unassigned) [Example 209]
3. CC[C@@H](CN(c1ccccc1F)S(=O)(=O)C1CC1)N1C(=O)[C@@H]([C@@H](C)C(=O)O)O[C@H](c2cccc(Cl)c2)[C@H]1c1ccc(Cl)cc1 (single isomer, unassigned) [Example 255]

**A:**
[8.22, 8.15, 8.40]

**Q:** Requested read-out: pIC50. Entry: O=C(O)C[C@H]1O[C@H](c2cccc(Cl)c2)[C@@H](c2ccc(Cl)cc2)N([C@H](CN(c2ccccc2F)S(=O)(=O)C2CC2)CC(F)(F)F)C1=O (single isomer, unassigned) [Example 279]
**A:** 7.41

Reference for the values: patent US9376425B2
